Molecular target: T1, human TMEM106B (human, UniProt Q9NUM4 2-274)
T1 construct: Full-length, on transiently transfected HEK293 cells, or natively expressed on HeLa, U251 and A549 cells; also called huTMEM106B; huTMEM
Experiment: FACS A549
Some binders, each annotated with its measured MFI.
Simply state the number, no unit and no words.

// known answers, use as guide
{"Binder": "anti-TMEM106B antibody TM-18 (antibody, V domains shown) VH: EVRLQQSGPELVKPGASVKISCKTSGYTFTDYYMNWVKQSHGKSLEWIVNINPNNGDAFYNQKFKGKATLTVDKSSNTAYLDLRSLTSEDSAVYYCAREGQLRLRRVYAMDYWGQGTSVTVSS VL: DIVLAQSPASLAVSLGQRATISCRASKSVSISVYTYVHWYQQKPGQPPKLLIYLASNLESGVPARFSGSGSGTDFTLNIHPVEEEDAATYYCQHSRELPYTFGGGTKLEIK", "MFI": 1490}
{"Binder": "anti-TMEM106B antibody TM-7 (antibody, V domains shown) VH: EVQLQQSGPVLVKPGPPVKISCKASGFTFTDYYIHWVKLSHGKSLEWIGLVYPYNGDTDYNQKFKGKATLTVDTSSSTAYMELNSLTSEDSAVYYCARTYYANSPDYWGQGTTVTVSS VL: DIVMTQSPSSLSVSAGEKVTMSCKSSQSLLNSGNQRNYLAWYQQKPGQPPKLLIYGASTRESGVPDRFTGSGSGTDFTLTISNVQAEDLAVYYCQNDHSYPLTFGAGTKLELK", "MFI": 647}

Now take the following binder into account.
Return reported MFI; argument: anti-TMEM106B antibody TM-2 (antibody, V domains shown) VH: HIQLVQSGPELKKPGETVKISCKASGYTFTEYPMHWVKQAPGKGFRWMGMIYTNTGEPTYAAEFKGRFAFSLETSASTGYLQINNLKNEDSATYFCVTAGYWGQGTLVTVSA VL: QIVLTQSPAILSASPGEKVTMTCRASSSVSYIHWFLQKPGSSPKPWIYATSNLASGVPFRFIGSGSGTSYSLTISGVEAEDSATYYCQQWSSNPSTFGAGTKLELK
1890
